Biological target: MLKL (Homo sapiens)
Sequence (Q8NB16 whole entry): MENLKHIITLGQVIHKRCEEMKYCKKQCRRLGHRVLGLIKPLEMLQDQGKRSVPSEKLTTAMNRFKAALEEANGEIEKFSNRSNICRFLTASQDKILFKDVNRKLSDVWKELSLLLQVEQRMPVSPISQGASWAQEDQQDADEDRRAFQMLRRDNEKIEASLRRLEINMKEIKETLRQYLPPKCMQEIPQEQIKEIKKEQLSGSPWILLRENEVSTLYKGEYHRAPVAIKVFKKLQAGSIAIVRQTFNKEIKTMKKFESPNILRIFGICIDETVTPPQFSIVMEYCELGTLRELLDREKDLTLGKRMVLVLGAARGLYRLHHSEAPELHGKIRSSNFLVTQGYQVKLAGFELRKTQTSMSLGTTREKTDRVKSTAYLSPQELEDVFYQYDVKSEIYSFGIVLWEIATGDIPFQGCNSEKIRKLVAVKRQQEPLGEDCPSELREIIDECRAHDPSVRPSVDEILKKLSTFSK
Assay: MLKL degradation assay in HepG2 cell line (western blot)
Assay type: cell-based
Set-up: endogenous in cells; host or cells: HepG2 or HaCaT
Conditions: compound 1 μM; cell line not given
METRIC NAME: Degradation assay (Degradation %) 1 μM
Write down the numeric answer in % and omit the unit.

Solved cases (5 shown):
MOLECULE	Degradation assay (Degradation %) 1 μM
Nc1ncc(-c2cnn(C3CCN(C(=O)C4CCN(C(=O)CCc5cccc6c5C(=O)N(C5CCC(=O)NC5=O)C6=O)CC4)CC3)c2)nc1C(=O)O[C@@H](C(=O)Nc1ccc(F)cc1)c1ccccc1 (stereo partly shown)	86.88
Nc1ncc(-c2cnn([C@H]3CCN(CCOCCOCCNC(=O)COc4ccc5c(c4)C(=O)N(C4CCC(=O)NC4=O)C5=O)C3)c2)nc1C(=O)OC(C(=O)Nc1ccc(F)cc1)c1ccccc1 (stereo partly shown)	18.14
Nc1ncc(-c2cnn(C3CCN(C(=O)C4CCN(C(=O)C5CCN(c6cccc7c6C(=O)N(C6CCC(=O)NC6=O)C7=O)CC5)CC4)CC3)c2)nc1C(=O)OC(C(=O)Nc1ccc(F)cc1)c1ccccc1 (stereo not shown)	77.5
Nc1ncc(-c2cnn(C3CCN(CCCCCCCCCCNC(=O)C4CCN(c5ccc6nnn(C7CCC(=O)NC7=O)c(=O)c6c5)CC4)CC3)c2)nc1C(=O)O[C@@H](C(=O)Nc1ccc(F)cc1)c1ccccc1 (stereo partly shown)	36.03
Nc1ncc(-c2cnn(C3CCN(C(=O)COC4CCN(C(=O)C5CCN(c6cccc7c6C(=O)N(C6CCC(=O)NC6=O)C7=O)CC5)CC4)CC3)c2)nc1C(=O)O[C@@H](C(=O)Nc1ccc(F)cc1)c1ccccc1 (stereo partly shown)	87.39

Noted for Nc1ncc(-c2cnn(C3CCN(CCC4CCN(c5cccc6c5C(=O)N(C5CCC(=O)NC5=O)C6=O)CC4)CC3)c2)nc1C(=O)O[C@@H](C(=O)Nc1ccc(F)cc1)c1ccccc1 (stereo partly shown) : its Degradation assay (Degradation %) 1 μM reads 65.39

Reported Degradation assay (Degradation %) 1 μM of Nc1ncc(-c2ccc(N3CCN(CC4CCN(C(=O)CNc5ccc6c(c5)C(=O)N(C5CCC(=O)NC5=O)C6=O)CC4)CC3)nc2)nc1C(=O)OC(C(=O)Nc1ccc(F)cc1)c1ccccc1 (stereo not shown) : 15.59

====

System: FADD−/− Jurkat cells
Assay: Necroptosis inhibition assay, TNF-α-induced necroptosis (CellTiter-Glo 2.0)
Assay type: cell-based, human
Conditions: compound 1 μM; TNF-α 15 ng/mL
METRIC NAME: Necroptosis inhibition assay (Rescue %) 1 μM
All answers are understood in %, so give the number only.

COMPOUND	VAL
Nc1ncc(-c2cnn(C3CCN(CCC4CCN(C(=O)CCc5cccc6c5CN(C5CCC(=O)NC5=O)C6=O)CC4)CC3)c2)nc1C(=O)O[C@@H](C(=O)Nc1ccc(F)cc1)c1ccccc1 (stereo partly shown)	53.62

Entry Nc1ncc(-c2cnn(C3CCN(C(=O)C4CCN(C(=O)CNc5cccc6c5C(=O)N(C5CCC(=O)NC5=O)C6=O)CC4)CC3)c2)nc1C(=O)OC(C(=O)Nc1ccc(F)cc1)c1ccccc1 (stereo not shown) ; Necroptosis inhibition assay (Rescue %) 1 μM = 69.59

Kindly note the recorded Necroptosis inhibition assay (Rescue %) 1 μM for Nc1ncc(-c2cnn(C3CCN(CCCCCCCCCCNC(=O)C4CCN(c5cccc6c5C(=O)N(C5CCC(=O)NC5=O)C6=O)CC4)CC3)c2)nc1C(=O)O[C@@H](C(=O)Nc1ccc(F)cc1)c1ccccc1 (stereo partly shown) , which is 19.9

Necroptosis inhibition assay (Rescue %) 1 μM reading for Nc1ncc(-c2cnn(C3CCN(CCC4CCN(C(=O)COc5cccc6c5C(=O)N(C5CCC(=O)NC5=O)C6=O)CC4)CC3)c2)nc1C(=O)O[C@@H](C(=O)Nc1ccc(F)cc1)c1ccccc1 (stereo partly shown) : 76.41

Necroptosis inhibition assay (Rescue %) 1 μM in this record for Nc1ncc(-c2cnn(C3CCN(CCOCCNC(=O)COc4cccc5c4C(=O)N(C4CCC(=O)NC4=O)C5=O)CC3)c2)nc1C(=O)O[C@@H](C(=O)Nc1ccc(F)cc1)c1ccccc1 (stereo partly shown) : 50.04

Entry under test: Nc1ncc(-c2cnn(C3CCN(C(=O)COCCOCCNC(=O)COc4cccc5c4C(=O)N(C4CCC(=O)NC4=O)C5=O)CC3)c2)nc1C(=O)O[C@@H](C(=O)Nc1ccc(F)cc1)c1ccccc1 (stereo partly shown) . Its Necroptosis inhibition assay (Rescue %) 1 μM was 45.68

Documented Necroptosis inhibition assay (Rescue %) 1 μM of Nc1ncc(-c2cnn(C3CCN(C(=O)CC4CCN(C(=O)COc5cccc6c5C(=O)N(C5CCC(=O)NC5=O)C6=O)CC4)CC3)c2)nc1C(=O)O[C@@H](C(=O)Nc1ccc(F)cc1)c1ccccc1 (stereo partly shown) : 32.31
